systemUnderTest: Human BCL-XL protein (N-terminal HiBiT tagged BCL-XL expressed in HT1080 cells) (Homo sapiens)
Construct: expressed in transfected cells; host or cells: HT-1080 (ATCC CCL-121), stably transduced with lentivirus pLV-UBC-N-HiBiT-BCL-XL-PGK-puro and selected with puromycin
assayProtocol: HiBiT Based Degradation Assay
Format: cell-based
recordedConditions: BCL-XL degradation, HT1080 cells expressing N-HiBiT-BCL-XL, 24 hours incubation, normalized with DMSO control; geometric mean for multiple data points; read-out: EC50 (24 h)
readoutName: DC50

Consider the following illustrative entries.
compound	assayResult
Cc1c(OCC2CC3(CCN(CCNc4ccc5c(C6CCC(=O)NC6=O)nn(C)c5c4)CC3)C2)cccc1-c1ccc(N2CCc3cccc(C(=O)Nc4nc5ccccc5s4)c3C2)nc1C(=O)O (centres unmarked)	< 10 nM
Cc1c(OC2CC3(CCN(CC(=O)Nc4ccc5c(C6CCC(=O)NC6=O)nn(C)c5n4)CC3)C2)cccc1-c1ccc(N2CCc3ccnc(C(=O)Nc4nc5ccccc5s4)c3C2)nc1C(=O)O (centres unmarked)	< 10 nM
COc1c(NC(=O)CN2CCC(CCCOc3cccc(-c4ccc(N5CCc6cccc(C(=O)Nc7nc8ccccc8s7)c6C5)nc4C(=O)O)c3F)CC2)ccc2c(C3CCC(=O)NC3=O)nn(C)c12 (centres unmarked)	10 to 100 nM
Cn1nc(C2CCC(=O)NC2=O)c2ccc(NC(=O)CN3CCC(CCCOc4ccc(-c5ccc(N6CCc7ccnc(C(=O)Nc8nc9ccccc9s8)c7C6)nc5C(=O)O)c(C(F)(F)F)c4)CC3)cc21 (centres unmarked)	10 to 100 nM

Proceeding to the next compound to report its DC50.
// fetch DC50 given entry Cn1nc(C2CCC(=O)NC2=O)c2ccc(NC(=O)CN3CCC4(CC3)CC(Oc3cccc(-c5ccc(N6CCc7ccnc(C(=O)Nc8nc9ccccc9s8)c7C6)nc5C(=O)O)c3C(F)(F)F)C4)cc21 (centres unmarked)
< 10 nM

###

systemUnderTest: Human BCL-XL protein (N-terminal HiBiT tagged BCL-XL expressed in HT1080 cells) (Homo sapiens, UniProt Q07817)
Construct: expressed in transfected cells; host or cells: HT-1080 (ATCC CCL-121), stably transduced with lentivirus pLV-UBC-N-HiBiT-BCL-XL-PGK-puro and selected with puromycin
Sequence (Q07817 whole entry): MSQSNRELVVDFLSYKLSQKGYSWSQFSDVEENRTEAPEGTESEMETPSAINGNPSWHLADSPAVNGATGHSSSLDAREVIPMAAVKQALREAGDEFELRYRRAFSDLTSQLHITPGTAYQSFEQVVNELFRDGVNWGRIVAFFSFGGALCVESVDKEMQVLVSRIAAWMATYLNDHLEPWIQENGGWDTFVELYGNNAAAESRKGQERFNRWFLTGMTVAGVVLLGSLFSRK
assayProtocol: HiBiT Based Degradation Assay
Type: cell-based
recordedConditions: bottom of BCL-XL degradation curve (remaining HiBiT-BCL-XL signal vs DMSO control), HT1080 cells, 24 hours incubation

compound	Ymin (24 h)
Cc1c(OCC2CC3(CCN(CC(=O)Nc4ccc5c(C6CCC(=O)NC6=O)nn(C)c5c4)CC3)C2)cccc1-c1ccc(N2CCc3ccnc(C(=O)Nc4nc5ccccc5s4)c3C2)nc1C(=O)O (stereo not drawn)	B (30% ≤ Ymin < 50%)
Cn1nc(C2CCC(=O)NC2=O)c2ccc(NC(=O)CN3CCC4(CC3)CC(Oc3ccc(-c5ccc(N6CCc7ccnc(C(=O)Nc8nc9ccccc9s8)c7C6)nc5C(=O)O)c(C(F)(F)F)c3)C4)c(F)c21 (stereo not drawn)	B (30% ≤ Ymin < 50%)
Cn1nc(C2CCC(=O)NC2=O)c2ccc(NC(=O)CN3CCC4(CC3)CC(Oc3cccc(-c5ccc(N6CCc7ccnc(C(=O)Nc8nc9ccccc9s8)c7C6)nc5C(=O)O)c3C(F)(F)F)C4)nc21 (stereo not drawn)	B (30% ≤ Ymin < 50%)

###

systemUnderTest: Human BCL-XL protein (N-terminal HiBiT tagged BCL-XL expressed in HT1080 cells) (Homo sapiens, UniProt Q07817)
Construct: expressed in transfected cells; host or cells: HT-1080 (ATCC CCL-121), stably transduced with lentivirus pLV-UBC-N-HiBiT-BCL-XL-PGK-puro and selected with puromycin
assayProtocol: HiBiT Based Degradation Assay
Format: cell-based
recordedConditions: bottom of BCL-XL degradation curve (remaining HiBiT-BCL-XL signal vs DMSO control), HT1080 cells, 24 hours incubation
Method: HiBiT Based Degradation Assay Human BCL-XL protein coding open reading frame fused with N-terminal HiBiT coding sequence (N-HiBiT-BCL-XL) was synthesized from Integrated DNA Technologies (IDT). Next, N-HiBiT-BCL-XL sequence was cloned into pLV-UBC-PGK-Puro, a lentivirus plasmid purchased from Vectorbuilder, to generate pLV-UBC-N-HiBiT-BCL-XL-PGK-puro. […] After incubation, luminescence was read on a PHERAstar FSX Plate Reader (BMG). […]
readoutName: Ymin (24 h)

Consider the following illustrative entries.
compound	Ymin (24 h)
Cc1cc(OC[C@H](C)CC2CCN(CC(=O)Nc3ccc4c(C5CCC(=O)NC5=O)nn(C)c4c3)CC2)ccc1-c1ccc(N2CCc3ccnc(C(=O)Nc4nc5ccccc5s4)c3C2)nc1C(=O)O (single isomer, unassigned) [Compound 140a]	A (Ymin < 30%)
COc1c(NC(=O)CN2CC[C@@H](CCCOc3cccc(-c4ccc(N5CCc6cccc(C(=O)Nc7nc8ccccc8s7)c6C5)nc4C(=O)O)c3C)C[C@H]2C)ccc2c(C3CCC(=O)NC3=O)nn(C)c12 (some centres unmarked) [Compound 208d]	B (30% ≤ Ymin < 50%)
Cc1cc(O[C@@H](C)CCC2CCN(CC(=O)Nc3ccc4c(C5CCC(=O)NC5=O)nn(C)c4c3)CC2)ccc1-c1ccc(N2CCc3ccnc(C(=O)Nc4nc5ccccc5s4)c3C2)nc1C(=O)O (single isomer, unassigned) [Compound 133b]	A (Ymin < 30%)
COc1c(NC(=O)CN2CCC(CCCOc3ccc(-c4ccc(N5CCc6cccc(C(=O)Nc7nc8ccccc8s7)c6C5)nc4C(=O)O)c(C)c3)CC2)ccc2c(C3CCC(=O)NC3=O)nn(C)c12 (centres unmarked)	A (Ymin < 30%)

// fetch Ymin (24 h) given entry Cc1c(OCCC[C@H]2CCN(CC(=O)Nc3ccc4c(C5CCC(=O)NC5=O)nn(C)c4c3)[C@H](C)C2)cccc1-c1ccc(N2CCc3ccnc(C(=O)Nc4nc5ccccc5s4)c3C2)nc1C(=O)O (some centres unmarked) [Compound 216c]
B (30% ≤ Ymin < 50%)

###

systemUnderTest: Human BCL-XL protein (N-terminal HiBiT tagged BCL-XL expressed in HT1080 cells) (Homo sapiens)
Construct: expressed in transfected cells; host or cells: HT-1080 (ATCC CCL-121), stably transduced with lentivirus pLV-UBC-N-HiBiT-BCL-XL-PGK-puro and selected with puromycin
assayProtocol: HiBiT Based Degradation Assay
Assay type: cell-based
recordedConditions: bottom of BCL-XL degradation curve (remaining HiBiT-BCL-XL signal vs DMSO control), HT1080 cells, 24 hours incubation
readoutName: Ymin (24 h)

Consider the following illustrative entries.
molecule	readoutName	assayResult
COc1c(NC(=O)CN2CCC3(CC2)CC(Oc2ccc(-c4ccc(N5CCc6ccnc(C(=O)Nc7nc8ccccc8s7)c6C5)nc4C(=O)O)c(C)c2)C3)ccc2c(C3CCC(=O)NC3=O)nn(C)c12 (stereo not drawn) [Compound 187]	Ymin (24 h)	A (Ymin < 30%)
Cc1cc(OCCC[C@H]2CCN(CC(=O)Nc3ccc4c(C5CCC(=O)NC5=O)nn(C)c4c3)[C@H](C)C2)ccc1-c1ccc(N2CCc3ccnc(C(=O)Nc4nc5ccccc5s4)c3C2)nc1C(=O)O (stereo partly drawn) [Compound 219c]	Ymin (24 h)	A (Ymin < 30%)
Cn1nc(C2CCC(=O)NC2=O)c2ccc(NC(=O)CN3CCC(CCCOc4cccc(-c5ccc(N6CCc7ccnc(C(=O)Nc8nc9ccccc9s8)c7C6)nc5C(=O)O)c4C(F)(F)F)CC3)cc21 (stereo not drawn) [Compound 159]	Ymin (24 h)	B (30% ≤ Ymin < 50%)
COc1c(NC(=O)CN2CCC3(CC2)CC(Oc2cccc(-c4ccc(N5CCc6ccnc(C(=O)Nc7nc8ccccc8s7)c6C5)nc4C(=O)O)c2C(F)(F)F)C3)ccc2c(C3CCC(=O)NC3=O)nn(C)c12 (stereo not drawn) [Compound 165]	Ymin (24 h)	B (30% ≤ Ymin < 50%)
Cc1c(OC[C@@H]2C[C@@H]2CC2CCN(CC(=O)Nc3ccc4c(C5CCC(=O)NC5=O)nn(C)c4c3)CC2)cccc1-c1ccc(N2CCc3cccc(C(=O)Nc4nc5ccccc5s4)c3C2)nc1C(=O)O (single isomer, unassigned) [Compound 1004c]	Ymin (24 h)	B (30% ≤ Ymin < 50%)

// fetch Ymin (24 h) given entry COc1c(NC(=O)CN2CCC3(CC2)CC(Oc2cccc(-c4ccc(N5CCc6cccc(C(=O)Nc7nc8ccccc8s7)c6C5)nc4C(=O)O)c2C)C3)ccc2c(C3CCC(=O)NC3=O)nn(C)c12 (stereo not drawn) [Compound 164]
B (30% ≤ Ymin < 50%)

// fetch Ymin (24 h) given entry Cc1cc(O[C@@H](C)CCC2CCN(CC(=O)Nc3ccc4c(C5CCC(=O)NC5=O)nn(C)c4c3F)CC2)ccc1-c1ccc(N2CCc3cccc(C(=O)Nc4nc5ccccc5s4)c3C2)nc1C(=O)O (single isomer, unassigned) [Compound 224a]
B (30% ≤ Ymin < 50%)

// fetch Ymin (24 h) given entry COc1c(NC(=O)CN2CC[C@H](CCCOc3ccc(-c4ccc(N5CCc6cccc(C(=O)Nc7nc8ccccc8s7)c6C5)nc4C(=O)O)c(C)c3)C[C@@H]2C)ccc2c(C3CCC(=O)NC3=O)nn(C)c12 (stereo partly drawn) [Compound 210b]
A (Ymin < 30%)

// fetch Ymin (24 h) given entry Cc1cc(OCCCC2CCN(CC(=O)Nc3ccc4c(C5CCC(=O)NC5=O)nn(C)c4c3)CC2)ccc1-c1ccc(N2CCc3ccnc(C(=O)Nc4nc5ccccc5s4)c3C2)nc1C(=O)O (stereo not drawn) [Compound 141]
A (Ymin < 30%)

// fetch Ymin (24 h) given entry Cc1c(OCCC[C@@H]2CCN(CC(=O)Nc3ccc4c(C5CCC(=O)NC5=O)nn(C)c4c3)[C@@H](C)C2)cccc1-c1ccc(N2CCc3cccc(C(=O)Nc4nc5ccccc5s4)c3C2)nc1C(=O)O (stereo partly drawn) [Compound 208a]
B (30% ≤ Ymin < 50%)

// fetch Ymin (24 h) given entry Cc1cc(NCCCC2CCN(CC(=O)Nc3ccc4c(C5CCC(=O)NC5=O)nn(C)c4c3)CC2)ccc1-c1ccc(N2CCc3cccc(C(=O)Nc4nc5ccccc5s4)c3C2)nc1C(=O)O (stereo not drawn) [Compound 218]
A (Ymin < 30%)

// fetch Ymin (24 h) given entry Cn1nc(C2CCC(=O)NC2=O)c2ccc(NC(=O)CN3CCC4(CC3)CC(Oc3cccc(-c5ccc(N6CCc7ccnc(C(=O)Nc8nc9ccccc9s8)c7C6)nc5C(=O)O)c3C(F)(F)F)C4)cc21 (stereo not drawn) [Compound 154]
B (30% ≤ Ymin < 50%)

// fetch Ymin (24 h) given entry Cn1nc(C2CCC(=O)NC2=O)c2ccc(NC(=O)CN3CCC4(CC3)CC(Oc3ccc(-c5ccc(N6CCc7cccc(C(=O)Nc8nc9ccccc9s8)c7C6)nc5C(=O)O)c(C(F)(F)F)c3)C4)cc21 (stereo not drawn) [Compound 155]
A (Ymin < 30%)
